Tested on: Mus musculus
Assay: Ability to produce neurological deficit in the rotarod test (10 mice were used per dose, ip)
Assay type: functional
Threshold 100 mg/kg. ND50 below it: satisfied. ND50 at it or above: not satisfied.

COMPOUND | ASSIGNED_CLASS
Cc1ccccc1-n1c(C)nc2ccccc2c1=O | satisfied
O=C(/C=C/c1cccc(C(F)(F)F)c1)NCCO | not satisfied
NC(=O)/C=C/c1cccc(C(F)(F)F)c1 | satisfied
O=C1CCC(O)(c2cccc(C(F)(F)F)c2)N1 (stereo unspecified) | not satisfied
CN1C(=O)CCC1(O)c1ccc(C(F)(F)F)cc1 (stereo unspecified) | not satisfied
O=C(/C=C/c1ccccc1)NCCO [IDROCILAMIDE] | not satisfied
CN1C(=O)CCC1(O)c1ccccc1 (stereo unspecified) | not satisfied
CC(C)CNC(=O)CCC(=O)c1cccc(C(F)(F)F)c1 | not satisfied
CCCCN1C(=O)CCC1(O)c1cccc(C(F)(F)F)c1 (stereo unspecified) | not satisfied
CN1C(=O)CCC1(O)c1cccc(C(F)(F)F)c1 (stereo unspecified) | not satisfied
Cc1cccc(C2(O)CCC(=O)N2C)c1 (stereo unspecified) | not satisfied
CCC(O)CNC(=O)/C=C/c1cccc(C(F)(F)F)c1 (stereo unspecified) | satisfied
O=C(CCC(=O)c1cccc(C(F)(F)F)c1)NC1CCCCC1 | not satisfied

====

Tested on: Mus musculus
Test: Ability to produce neurological deficit in the rotarod test (10 mice were used per dose, ip)
Type: functional
TEST_READOUT: ND50

SMILES | EXPERIMENTAL_VALUE
CNC(=O)/C=C(\C)c1cccc(C(F)(F)F)c1 | >75 mg/kg
CN1CCN(C(=O)/C=C/c2cccc(C(F)(F)F)c2)CC1 | >75 mg/kg
CN1CCN(C(=O)CCC(=O)c2cccc(C(F)(F)F)c2)CC1 | >37.5 mg/kg
